molecular target: Substance-K receptor (Rattus norvegicus); assay: In vitro for antagonism against neurokinin NK2 receptor in rat colon muscularis mucosae; type: functional, tissue-based; conditions: Muscularis mucosa
Peptide text beside a SMILES is read from it.
measurement_kind: pKB

CC(C)CCN(C)C(=O)[C@@H](Cc1c[nH]c2ccccc12)NC(=O)[C@H](C)NC(=O)[C@H](C)NC(=O)c1ccccc1 | 8
C[C@H](NC(=O)c1ccccc1)C(=O)N[C@@H](C)C(=O)N[C@H](C#N)Cc1c[nH]c2ccccc12 | 6.8
C[C@H](NC(=O)CNC(=O)C1CCCCC1)C(=O)N[C@H](Cc1c[nH]c2ccccc12)C(=O)N[C@@H](Cc1ccccc1)C(=O)N(C)C (HELM PEPTIDE1{[O=C(C1CCCCC1)[*:2]].G.A.[dW].F.[CN(C)[*:1]]}$$$$V2.0) | 9.05
C[C@H](NC(=O)CNC(=O)c1ccccc1)C(=O)N[C@H](Cc1c[nH]c2ccccc12)C(=O)N[C@@H](Cc1ccccc1)C(=O)N(C)C | 8.87
C[C@H](NC(=O)c1ccccc1)C(=O)N[C@@H](C)C(=O)N[C@H](Cc1c[nH]c2ccccc12)C(=O)N(C)CCc1ccccc1 | 7.4
C[C@H](NC(=O)c1ccccc1)C(=O)N[C@@H](C)C(=O)N[C@H](Cc1c[nH]c2ccccc12)C(=O)N[C@@H](Cc1ccccc1)C(=O)N(C)C | 8.56
CC(C)CCN(C)C(=O)[C@@H](Cc1c[nH]c2ccccc12)NC(=O)[C@H](C)NC(=O)c1c[nH]c(-c2ccccc2)n1 | 7.64
C[C@H](NC(=O)c1ccccc1)C(=O)N[C@@H](C)C(=O)NCCc1c[nH]c2ccccc12 | 6.02
C[C@H](NC(=O)c1ccccc1)C(=O)N[C@@H](C)C(=O)N[C@H](Cc1c[nH]c2ccccc12)C(=O)N[C@@H](Cc1ccccc1)C(=O)O | 6.6
C[C@H](NC(=O)c1ccccc1)C(=O)N[C@@H](C)C(=O)N[C@H](Cc1c[nH]c2ccccc12)C(=O)N(C)C | 6.45

====

assay: Biological half life when administered at 0.1 umol/kg intravenously to guinea pig in GR-64349 antagonism; assay type: ADME, organism-based, Cavia porcellus; settings: in vivo, iv
Peptide text beside a SMILES is read from it.
measurement_kind: half-life (min)
# output: bare number, implied unit min

Query: Could you tell me which half-life is on file for C[C@H](NC(=O)CNC(=O)C1CCCCC1)C(=O)N[C@H](Cc1c[nH]c2ccccc12)C(=O)N[C@@H](Cc1ccccc1)C(=O)N(C)C (HELM PEPTIDE1{[O=C(C1CCCCC1)[*:2]].G.A.[dW].F.[CN(C)[*:1]]}$$$$V2.0) ?
Reply: 26

====

experiment: Biological half life when administered at 5 umol/kg intravenously to guinea pig in GR-64349 antagonism; format: ADME, organism-based, Cavia porcellus; conditions: in vivo, iv
measurement_kind: half-life (h)

[A] CC(C)CCN(C)C(=O)[C@@H](Cc1c[nH]c2ccccc12)NC(=O)[C@H](C)NC(=O)c1c[nH]c(-c2ccccc2)n1
[B] C[C@H](NC(=O)c1ccccc1)C(=O)N[C@@H](C)C(=O)N[C@H](C#N)Cc1c[nH]c2ccccc12
Query: Decide: A or B , by lowest recorded half-life. To answer, give the label that identifies your chosen option.
Reply: B
(B: 0.333 h, A: 2.33 h)
